target: T1, mouse IL-12Rβ2 expressed on cells (mouse, UniProt P97378 24-874)
T1 construct: HEK293T cells, stably transduced (cDNA NM_008354); also called mIL-12RB2
T1 sequence: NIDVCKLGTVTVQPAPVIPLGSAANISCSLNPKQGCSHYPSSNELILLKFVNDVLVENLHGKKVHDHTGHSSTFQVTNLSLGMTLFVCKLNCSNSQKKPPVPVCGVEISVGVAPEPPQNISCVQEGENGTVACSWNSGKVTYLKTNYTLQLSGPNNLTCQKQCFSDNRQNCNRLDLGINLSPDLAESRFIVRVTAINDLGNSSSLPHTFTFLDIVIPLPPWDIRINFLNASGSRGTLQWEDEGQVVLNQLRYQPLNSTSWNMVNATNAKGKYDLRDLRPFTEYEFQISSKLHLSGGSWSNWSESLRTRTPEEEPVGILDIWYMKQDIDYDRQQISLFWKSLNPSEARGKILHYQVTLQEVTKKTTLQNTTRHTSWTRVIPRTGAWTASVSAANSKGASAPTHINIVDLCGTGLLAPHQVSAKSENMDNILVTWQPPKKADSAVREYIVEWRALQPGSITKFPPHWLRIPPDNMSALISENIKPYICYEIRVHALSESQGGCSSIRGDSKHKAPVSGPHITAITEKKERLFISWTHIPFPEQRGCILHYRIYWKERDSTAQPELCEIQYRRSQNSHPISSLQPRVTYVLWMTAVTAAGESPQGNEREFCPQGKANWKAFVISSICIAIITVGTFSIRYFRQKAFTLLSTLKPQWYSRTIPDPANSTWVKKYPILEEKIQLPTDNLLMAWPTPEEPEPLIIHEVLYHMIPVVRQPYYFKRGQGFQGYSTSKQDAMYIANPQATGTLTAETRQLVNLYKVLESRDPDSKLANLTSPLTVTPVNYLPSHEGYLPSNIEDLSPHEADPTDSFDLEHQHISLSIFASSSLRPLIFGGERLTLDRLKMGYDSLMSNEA
protocol.notes: flow cytometry, P.E. VHH on HEK293T cells stably expressing mIL-12RB2
experimental.endpoint: % cells bound
Number first, unit second.

anti-IL-12Rβ2 VHH clone 2CRM28 (VHH, not shown: small tags and cut ends, tested as periplasmic extract) VHH: QVQLQESGGGLVQPGGSLRLSCAASGRAWNEYNMGWFRQAPGKEREFVALIWWSSGNTYYADSVKGRFTISRDKVKNTVYLQMNSLKPEDTAVYYCAAGPTFNKYEYWGQGTQVTVSS: 19.5%
anti-IL-12Rβ2 VHH clone 2CAM39 (VHH, not shown: small tags and cut ends, tested as periplasmic extract; also called 20482) VHH: QVQLQESGGGLVQAGGSLRLSCAASGRTFSTYAMGWFRQAPGKEREFVAAISWSGGSTYYADSVKGRFTISRDNAKNTGYLQMNSLKPEDTAVYVCAADAEDPILYGSSWNNRRKEYDYWGQGTQVTVSS: 48.7%

Kindly give each listed record's % cells bound.
1. anti-IL-12Rβ2 VHH clone 3CRHM20 (VHH, not shown: small tags and cut ends, tested as periplasmic extract; also called 21055) VHH: QVQLQESGGGLVQAGGSLRLSCAASGRTFSKSTMGWFRQTPGKEREFVAAITWTDTEVYANSVKDRFTISRDNAKNTFYLQMHSLKLEDTAVYYCAGDRYGSSRDSVFSSPTNYPYWGQGTQVTVSS
2. anti-IL-12Rβ2 VHH clone 3CAM57 (VHH, not shown: small tags and cut ends, tested as periplasmic extract; also called 20512; 3CAMS7) VHH: QVQLQESGGGLVQAGGSLRLSCTPSGRTFSTLAMGWFRQAPGKEREVVATISWSGGRTYYASSVKSRFTISRDNAKNTAYLQMNSLRPDDTAVYYCAARGTDYGAYDYWGQGTQVTVSS

["2.83%", "62.2%"]
